Assay: inhibitors of Clostridioides difficile proliferation – 4-point retest, confirmation (AID 1224921);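 also: plate controls were DMSO wells for no effect and levofloxacin 16 µg/mL wells for full effect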
Settings: Clostridioides difficile clinical isolate growth, OD600, 24 h, active compounds read low; at 30 µM unless noted
The campaign covered roughly 1,400 compounds. About 350 (25%) were called active. Not shown: some 2% with an inconclusive outcome. A selection follows. Entries with a potency or affinity are not part of this list.
recorded.metric: max activity

Take a look at these entries with their results.
>>> df
                                smiles_text  recorded_metric                      result
0  CO[C@H]1CN(C)C(=O)c2cc(NC(=O)C3CC3)ccc2OC[C@H](C)N(C(=O)c2ccccn2)C[C@@H]1C     max activity            5.91% (inactive)
1  C[C@@H]1CN([C@H](C)CO)S(=O)(=O)c2ccc(-c3ccccc3)cc2O[C@H]1CN(C)Cc1ccncc1     max activity            33.9% (inactive)
2  O=C(C[C@H]1CC[C@H]2[C@@H](COC[C@@H](O)CN2Cc2cccc(Cl)c2)O1)NCC1CCCCC1     max activity  11.9% [at 8 µM] (inactive)

If you can, please state the reported max activity value of CC(C)C#Cc1ccc2c(c1)O[C@H](CN(C)Cc1ccncc1)[C@@H](C)CN([C@H](C)CO)S2(=O)=O .
51.9% (inactive)

###

Experiment: inhibitors of Clostridioides difficile proliferation – 4-point retest, confirmation (AID 1224921);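 also: plate controls were DMSO wells for no effect and levofloxacin 16 µg/mL wells for full effect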
Conditions: Clostridioides difficile clinical isolate growth, OD600, 24 h, active compounds read low; at 30 µM unless noted
Out of some 1,400 compounds screened, about 350 (25%) were called active. Inconclusive results (about 2%) are left out. A selection follows. Entries with a potency or affinity are not part of this list.
recorded.metric: max activity

Reference set (2 entries):
In [3]: df
Out[3]:
                                smiles_text                      result
0  COCC(=O)Nc1ccc2c(c1)OC[C@@H](C)N(Cc1ccccc1OC)C[C@@H](C)[C@@H](OC)CN(C)C2=O            16.6% (inactive)
1  COc1ccc(CN(C)C[C@@H]2OCCCC[C@@H](C)Oc3ccc(NC(=O)Nc4cccc5ccccc45)cc3C(=O)N([C@@H](C)CO)C[C@H]2C)cc1  29.5% [at 8 µM] (inactive)

Could you share which max activity value was measured for COc1ccc(CN(C)C[C@@H]2OCCCC[C@H](C)Oc3ccc(NC(=O)Nc4cccc5ccccc45)cc3C(=O)N([C@@H](C)CO)C[C@H]2C)cc1 ?
25.5% (inactive)

Look up max activity for this molecule: COc1ccc(NC(=O)Nc2ccc3c(c2)C(=O)N([C@@H](C)CO)C[C@@H](C)[C@H](CN(C)Cc2ccccc2)OCCCC[C@@H](C)O3)cc1
30.9% (inactive)

# max activity lookup, item O=C(C[C@H]1C[C@@H]2c3cc(NC(=O)Nc4ccc(C(F)(F)F)cc4)ccc3O[C@@H]2[C@H](CO)O1)NCc1ccc2c(c1)OCO2
9.19% (inactive)

###

Assay: inhibitors of Clostridioides difficile proliferation – 4-point retest, confirmation (AID 1224921);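 also: plate controls were DMSO wells for no effect and levofloxacin 16 µg/mL wells for full effect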
Conditions: Clostridioides difficile clinical isolate growth, OD600, 24 h, active compounds read low; at 30 µM unless noted
Among all 1,400 compounds or so, about 350 (25%) were called active. Inconclusive results (about 2%) are left out. Not all results are given here. Entries with a potency or affinity are not part of this list.
recorded.metric: max activity

                                smiles_text  recorded_metric                          result
0  CNC(=O)C[C@@H]1CC[C@H]2[C@@H](COc3ccc(NC(=O)c4ccccc4F)cc3C(=O)N2C)O1     max activity  -11.2% [at 1.95 µM] (inactive)
1  CC(C)[C@@H](C)NC(=O)N(C)C[C@@H]1OCc2ccccc2-c2ccccc2C(=O)N([C@H](C)CO)C[C@H]1C     max activity     47.6% [at 35 µM] (inactive)
2  CO[C@@H]1CN(C)C(=O)c2ccc(NS(=O)(=O)c3ccccc3C)cc2OC[C@H](C)N(S(C)(=O)=O)C[C@H]1C     max activity     -9.59% [at 8 µM] (inactive)

May I ask what max activity has been recorded for CNC(=O)C[C@H]1CC[C@H]2[C@H](COc3ccc(NC(=O)c4ccccc4F)cc3C(=O)N2C)O1 ?
-13.3% [at 1.95 µM] (inactive)
